# tested-target: DLK (Homo sapiens, UniProt Q12852)
# Construct: 10 nM DLK, catalytic domain, Carna Biosiences; purchased Carna Biosciences ('Carna Biosiences' [sic])
# Sequence (Q12852 125-366 limits assumed): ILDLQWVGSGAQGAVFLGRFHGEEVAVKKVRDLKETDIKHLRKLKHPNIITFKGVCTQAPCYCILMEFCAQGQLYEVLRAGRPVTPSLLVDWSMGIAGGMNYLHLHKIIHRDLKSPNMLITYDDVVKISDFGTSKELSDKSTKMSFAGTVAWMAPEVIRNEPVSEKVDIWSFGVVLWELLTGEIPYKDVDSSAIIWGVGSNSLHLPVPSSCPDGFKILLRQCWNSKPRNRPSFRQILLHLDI
# experimental-details: DLK biochemical assay (TR-FRET, MKK7 phosphorylation)
readout-label: IC50 (nM)

- Nc1nc2cc(-c3cnn(C(c4ccc(C(F)(F)F)nc4)C4CCOCC4)c3)cc(-c3cnn(CC(F)(F)F)c3)n2n1 (single isomer, unassigned) [II-151]: 11
- CC[C@@H](c1ccccc1)n1cc(-c2cc(-c3ccc(=O)[nH]c3)n3nc(N)nc3c2)cn1: 15
- CC(C)C(c1ccc(C(F)(F)F)nc1)n1cc(-c2cc(-c3ccc(C4CC4)nc3)n3nc(N)nc3c2)cn1 (single isomer, unassigned) [II-60]: 11
- CC(C)C(c1ccc(C(F)F)nc1)n1cc(-c2cc(-c3ccc(C(F)(F)F)nc3)n3nc(N)nc3c2)cn1 (single isomer, unassigned) [II-66]: 45

P. CCC(c1ccc(N2CCOCC2)cc1)n1cc(-c2cc(-c3cnn(CC(F)(F)F)c3)c3nc(N)nn3c2)cn1 (single isomer, unassigned) [II-104]
Q. Nc1nc2cc(-c3cnn(C(c4ccc(C(F)(F)F)nc4)C4CCOCC4)c3)cc(-c3ccc(=O)n(CC(F)(F)F)c3)n2n1 (stereo not drawn) [II-191]
Exercise: Among P and Q , which shows a numerically higher IC50 result? Indicate which entry you chose by stating its label.
Key: P

---

# tested-target: LZK (Homo sapiens, UniProt O43283)
# Construct: 10 nM LZK, catalytic domain, Carna Biosiences in assay buffer; purchased Carna Biosciences ('Carna Biosiences' [sic])
# Sequence (O43283 168-409 limits assumed): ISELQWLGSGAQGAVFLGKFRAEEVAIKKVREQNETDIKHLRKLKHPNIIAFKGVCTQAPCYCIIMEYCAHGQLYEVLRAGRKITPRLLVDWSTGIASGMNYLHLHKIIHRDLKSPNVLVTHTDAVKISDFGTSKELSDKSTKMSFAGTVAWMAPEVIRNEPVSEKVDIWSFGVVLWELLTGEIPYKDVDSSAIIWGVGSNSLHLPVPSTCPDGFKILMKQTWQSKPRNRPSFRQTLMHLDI
# experimental-details: LZK biochemical assay (TR-FRET, MKK7 phosphorylation)
# assay-context: LZK catalytic domain, MKK7 substrate, 15 μM ATP
readout-label: IC50 (nM)

Example entries begin here.
- CC[C@H](C)NC(=O)c1cc(-c2cnn(C(c3ccc(OCC(F)(F)F)nc3)C(C)C)c2)cn2nc(N)nc12 (mixture of isomers) [Example I-88]: 120
- CCC(c1ccc(C(F)(F)F)nc1)n1cc(-c2cc(C(=O)N[C@@H](C)CO)c3nc(N)nn3c2)cn1 (mixture of isomers) [Example I-151]: 9.8
- CC[C@H](C)NC(=O)c1cc(-c2cnn(C(c3ccc(C(F)F)nc3)C(C)C)c2)cc2nc(N)nn12 (single isomer, unassigned) [Example I-96]: 17

P. CC[C@H](C)NC(=O)c1cc(-c2cnn(C(c3ccccc3)C(C)(C)C)c2)cn2nc(N)nc12 (mixture of isomers) [Example I-34]
Q. CCC(c1ccc(OCC(F)(F)F)nc1)n1cc(-c2cc(C(=O)N[C@H]3CCOC3)n3nc(N)nc3c2)cn1 (mixture of isomers) [Example I-186]
Exercise: Between the entries labelled P and Q , which has a larger IC50 value on record? Write down the label of the entry you select.
Key: P

P. CC[C@H](C)NC(=O)c1cc(-c2cnn(C(c3ccc(OCC(F)(F)F)nc3)C3CC3)c2)cc2nc(N)nn12 (single isomer, unassigned) [Example I-121]
Q. CC[C@H](C)NC(=O)c1cc(-c2cnn(C(c3ccnc(C(F)(F)F)c3)C(C)C)c2)cn2nc(N)nc12 (mixture of isomers)
R. CC[C@H](C)NC(=O)c1cc(-c2cnn(C(c3ccc(C(F)(F)F)nc3)C3CCN(C(=O)OC(C)(C)C)CC3)c2)cn2nc(N)nc12 (mixture of isomers)
S. CC[C@H](C)NC(=O)c1cc(-c2cnn(C(c3ccccc3)C3(C)CC3)c2)cn2nc(N)nc12 (single isomer, unassigned) [Example I-30]
T. CCC(c1ccc(OC(F)(F)F)nc1)n1cc(-c2cc(C(=O)NC(C)(C)CO)c3nc(N)nn3c2)cn1 (racemic) [Example I-169]
Exercise: # rank by IC50, ascending (min first) Give me the labels in the order the question wants.
Key: R, Q, P, T, S
(R: 1.4 nM, Q: 15 nM, P: 30 nM, T: 71 nM, S: 310 nM)

---

# tested-target: DLK (Homo sapiens, UniProt Q12852)
# Construct: 10 nM DLK, catalytic domain, Carna Biosiences; purchased Carna Biosciences ('Carna Biosiences' [sic])
# experimental-details: DLK biochemical assay (TR-FRET, MKK7 phosphorylation)
# assay-context: DLK catalytic domain, MKK7 substrate, 60 μM ATP
readout-label: IC50 (nM)

Example entries begin here.
- CC[C@@H](c1ccc(F)cc1)n1cc(-c2cc(C(=O)NC(C)CF)n3nc(N)nc3c2)cn1 (single isomer, unassigned) [Example I-149]: 1.7
- Nc1nc2cc(-c3cnn(C(c4ccc(C(F)(F)F)nc4)C4CCOCC4)c3)cc(C(=O)N[C@H]3CCOC3)n2n1 (single isomer, unassigned) [Example I-185]: 0.8

I. CC[C@H](C)NC(=O)c1cc(-c2cnn(C(COC)c3ccccc3)c2)cn2nc(N)nc12 (single isomer, unassigned) [Example I-41]
II. CC[C@H](C)NC(=O)c1cc(-c2cnn(C(c3ccc(C(F)F)nc3)C(C)C)c2)cc2nc(N)nn12 (single isomer, unassigned) [Example I-96]
Exercise: Identify the item whose IC50 is the smaller number: I or II Answer by stating the label of the chosen item.
Key: I
(I: 2.8 nM, II: 14 nM)

I. CCC(c1ccc(C(F)(F)F)nc1)n1cc(-c2cc(C(=O)N[C@H]3CCOC3)n3nc(N)nc3c2)cn1 (mixture of isomers) [Example I-177]
II. CCC(c1ccc(F)cn1)n1cc(-c2cc(C(=O)N[C@@H](C)CC)c3nc(N)nn3c2)cn1 (single isomer, unassigned) [Example I-57]
Exercise: Higher IC50: I or II ? Answer with the label corresponding to your selection.
Key: II
(II: 59 nM, I: 2.6 nM)

P. CC[C@H](C)NC(=O)c1cc(-c2cnn(C(c3ccccc3)C3(C)CC3)c2)cn2nc(N)nc12 (single isomer, unassigned) [Example I-30]
Q. CC[C@H](C)NC(=O)c1cc(-c2cnn(C3CCCc4cnccc43)c2)cc2nc(N)nn12 (mixture of isomers)
Exercise: Hi team, can someone confirm which has the larger IC50: P or Q ? Thanks. Write down the label of the entry you select.
Key: P
(P: 140 nM, Q: 11 nM)

---

# tested-target: LZK (Homo sapiens)
# Construct: 10 nM LZK, catalytic domain, Carna Biosiences in assay buffer; purchased Carna Biosciences ('Carna Biosiences' [sic])
# experimental-details: LZK biochemical assay (TR-FRET, MKK7 phosphorylation)
# assay-context: LZK catalytic domain, MKK7 substrate, 15 μM ATP
pIC50: −log10 of the molar value.
readout-label: pIC50

- CC[C@H](C)NC(=O)c1cc(-c2cnn([C@H](c3ccc(C(F)(F)F)nc3)C(C)C)c2)cc2nc(N)nn12 (single isomer, unassigned): 8.80

a. CC(C)C(c1cncc(Cl)c1)n1cc(-c2cc(C(=O)NC(C)(C)CO)c3nc(N)nn3c2)cn1 (racemic) [Example I-172]
b. CC[C@H](C)NC(=O)c1cc(-c2cnn(C(c3ccc(C(F)(F)F)nc3)C3CCNCC3)c2)cn2nc(N)nc12 (single isomer, unassigned) [Example I-83]
Exercise: Between these two entries, a and b , state which has the higher pIC50. Please identify the chosen entry by its label.
Key: b
(b: 9.15, a: 7.12)

P. CC[C@H](C)NC(=O)c1cc(-c2cnn(C(c3ccc(OCC(F)(F)F)nc3)C(C)C)c2)cc2nc(N)nn12 (mixture of isomers) [Example I-116]
Q. CC[C@H](C)NC(=O)c1cc(-c2cnn(C(c3ccccc3)C3CCOCC3)c2)cc2nc(N)nn12 (mixture of isomers) [Example I-51]
Exercise: Record comparison, field pIC50: mark the lower of P and Q . Answer = label.
Key: P

a. CC(CF)NC(=O)c1cc(-c2cnn(CC3CC3)c2)cn2nc(N)nc12 (racemic)
b. CCC(c1ccc(OCC(F)(F)F)nc1)n1cc(-c2cc(C(=O)N[C@@H](C)CC)c3nc(N)nn3c2)cn1 (mixture of isomers) [Example I-85]
c. CCC(c1ccc(F)cn1)n1cc(-c2cc(C(=O)N[C@@H](C)CC)c3nc(N)nn3c2)cn1 (single isomer, unassigned) [Example I-56]
d. CC[C@H](C)NC(=O)c1cc(-c2cnn(C3CCN(C(C)C)CC3)c2)cn2nc(N)nc12 (single isomer, unassigned)
Exercise: Task field, ranking: reported pIC50, descending order. API: response body holds the labels in the requested order.
Key: d, c, b, a
(d: 8.42, c: 7.72, b: 7.42, a: 6.82)

1. CC[C@H](C)NC(=O)c1cc(-c2cnn(C(c3ccccc3)C3CC(F)(F)C3)c2)cn2nc(N)nc12 (single isomer, unassigned) [Example I-32]
2. CC[C@H](C)NC(=O)c1cc(-c2cnn(C(c3ccccc3)C(C)C)c2)cc2nc(N)nn12 (mixture of isomers) [Example I-24]
Exercise: Which value of pIC50 is smaller, the one for 1 or the one for 2 ? // return label of chosen record
Key: 1
